Consider the following molecules; for each one, report its Bliss excess.
System: 8505C (Thyroid Gland Carcinoma);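 also: after 72 h of two-drug dosing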
Protocol Text: Bliss excess, mean over the matrix (fraction); higher = more synergy

Query: Give me measured Bliss excess, please, for this molecule: C[C@@H](c1ccc2nccn2c1)n1nnc2ncc(-c3cnn(C)c3)nc21 [Savolitinib] + Cc1c2c(nn1C)CSCc1cc(n(C)n1)CSc1cc(c3ccccc3c1)OCCCc1c(C(=O)O)n(C)c3c-2c(Cl)ccc13 [AZD5991] (first compound max 1 µM, 7x7, partner max 1 µM)
Reply: -0.0324

Query: Provide one value: measured Bliss excess of COc1cccc(OCCCN)c1-c1cc(Nc2cnc(C#N)cn2)n[nH]1 [Prexasertib] + C=CCn1c(=O)c2cnc(Nc3ccc(N4CCN(C)CC4)cc3)nc2n1-c1cccc(C(C)(C)O)n1 [AZD1775] (first compound max 1 µM, partner max 1 µM)
Reply: 0.0849

Query: Provide one value: measured Bliss excess of CCc1c2c(nc3ccc(O)cc13)-c1cc3c(c(=O)n1C2)COC(=O)[C@]3(O)CC [SN-38] + CN(C)CCCOc1ccc(-c2ccc3ncc4c(c3c2)n(C2CCOCC2)c(=O)n4C)cn1 [AZD0156] (first compound max 0.3 µM, 7x7, partner max 1 µM)
Reply: 0.014

Query: Read the entry COc1nnc2ccc(N3CCC(c4ccc(OCCN5CCN(C)C(=O)[C@H]5C)cc4)CC3)nn12 [AZD5153] + C[C@@H]1COCCN1C2=NC(=NC(=C2)C3(CC3)[S@](=N)(=O)C)C4=C5C=CNC5=NC=C4 [AZD6738] (first compound max 1 µM, 7x7, partner max 10 µM) and write its reported Bliss excess.
Reply: 0.0751

Reference for the values: the supplement of paper PMC11061612
